Cited source: patent US20150246947A1

Measured IC50 of individual entries
# target_under_test: T1, human Protein S (UniProt P07225 42-676)
# T1 chain: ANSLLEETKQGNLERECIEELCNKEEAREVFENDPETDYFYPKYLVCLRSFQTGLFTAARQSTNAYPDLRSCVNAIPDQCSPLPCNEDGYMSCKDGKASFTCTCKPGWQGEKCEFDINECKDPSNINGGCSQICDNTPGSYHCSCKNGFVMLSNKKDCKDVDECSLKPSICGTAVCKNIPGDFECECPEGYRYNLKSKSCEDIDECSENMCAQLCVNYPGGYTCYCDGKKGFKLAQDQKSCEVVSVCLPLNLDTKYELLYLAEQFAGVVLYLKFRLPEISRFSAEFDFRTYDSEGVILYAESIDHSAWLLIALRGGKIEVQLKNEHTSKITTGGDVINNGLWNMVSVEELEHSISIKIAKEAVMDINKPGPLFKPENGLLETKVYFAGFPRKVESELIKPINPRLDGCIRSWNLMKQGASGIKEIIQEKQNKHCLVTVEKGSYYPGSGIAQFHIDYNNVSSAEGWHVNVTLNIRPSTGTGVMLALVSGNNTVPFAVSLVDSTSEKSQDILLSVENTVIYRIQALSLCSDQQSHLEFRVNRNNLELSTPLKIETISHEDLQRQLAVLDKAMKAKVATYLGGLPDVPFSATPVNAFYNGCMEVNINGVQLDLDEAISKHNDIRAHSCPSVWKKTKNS
# test_protocol: LANCE competition
Form entry: value (nM) — number only.

// query Given the binder Ac-EYYVSAGWYDYNNDIYLEFE-NH2 [JBS3241] , what is its reported IC50?
// result 1.2

// query Given the binder Ac-DVHVSAGWYDYNKDIYYEFT-NH2 [JBS3296] , what is its reported IC50?
// result 2.2

// query Given the binder Ac-EYYVSAGWYDYNSDTYFEFI-NH2 [JBS3245] , what is its reported IC50?
// result 2

// query Given the binder Ac-EYYVSAGWYDYNNDIYYEFI-NH2 [JBS3240] , what is its reported IC50?
// result 2
